biological target: Lyn kinase (human) (Homo sapiens); construct: purchased Upstate Biotechnology, Lake Placid, N.Y; experiment: Lyn Kinase Assay; assay type: biochemical; conditions: test concentration of 2 μM
Sequence (P07948 whole entry): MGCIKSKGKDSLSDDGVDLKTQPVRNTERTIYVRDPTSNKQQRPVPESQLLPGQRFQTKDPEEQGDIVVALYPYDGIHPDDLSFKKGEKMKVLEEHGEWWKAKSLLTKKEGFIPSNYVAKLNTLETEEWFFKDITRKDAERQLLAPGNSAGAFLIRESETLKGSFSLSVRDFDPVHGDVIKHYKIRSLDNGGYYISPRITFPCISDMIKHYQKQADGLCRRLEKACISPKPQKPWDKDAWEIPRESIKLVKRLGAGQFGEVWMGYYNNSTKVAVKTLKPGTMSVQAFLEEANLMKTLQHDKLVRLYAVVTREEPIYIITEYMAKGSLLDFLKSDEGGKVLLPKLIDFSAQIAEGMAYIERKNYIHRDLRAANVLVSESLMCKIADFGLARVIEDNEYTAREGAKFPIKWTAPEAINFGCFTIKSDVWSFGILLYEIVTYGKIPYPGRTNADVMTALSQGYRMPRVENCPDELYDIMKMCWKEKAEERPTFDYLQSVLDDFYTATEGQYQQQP
PARAMETER: inhibition at 2 µM (%)
Form entry: value (%) — number only.

These solved cases illustrate the format of a correct answer.
{"COMPOUND": "CN1CCCC(COc2ccc(NC(=O)c3sc4ncnc5c4c3NC(=O)N5c3ccc(Cl)cc3Cl)cc2)C1 (stereo not shown)", "PARAMETER": "inhibition at 2 µM", "NUMBER": 38}
{"COMPOUND": "O=C(Nc1ccc(CCN2CCCCC2)cc1)c1sc2ncnc3c2c1NC(=O)N3c1ccc(Oc2cccc(F)c2)cc1", "PARAMETER": "inhibition at 2 µM", "NUMBER": 33}
{"COMPOUND": "COc1ccc(-c2sc3ncnc4c3c2NC(=O)N4c2ccc(F)c(Cl)c2)cc1OC", "PARAMETER": "inhibition at 2 µM", "NUMBER": -7}
{"COMPOUND": "COc1ccc(Cl)c(N2C(=O)Nc3c(C(=O)Nc4ccc(CN5CCOCC5)cc4)sc4ncnc2c34)c1", "PARAMETER": "inhibition at 2 µM", "NUMBER": 70}
{"COMPOUND": "O=C(Nc1ccc(CN2CCOCC2)cc1)c1sc2ncnc3c2c1NC(=O)N3c1ccc(-c2ccc(Cl)cc2)cc1", "PARAMETER": "inhibition at 2 µM", "NUMBER": 43}

Problem: For the compound Cc1ccc(Br)cc1N1C(=O)Nc2c(C(=O)Nc3ccc(CN4CCOCC4)cc3)sc3ncnc1c23 , what inhibition at 2 µM is on record?
Solution: 75

Problem: Can you check O=C(Nc1ccc(CN2CCOCC2)cc1)c1sc2ncnc3c2c1NC(=O)N3c1ccc(Br)cc1F next?
Solution: 17

Problem: Moving on to the next compound: COc1cc(NC(=O)c2sc3ncnc4c3c2NC(=O)N4c2cc(OC)c(OC)c(OC)c2)ccc1OCC1CCCCO1 (stereo not shown)
Solution: -7

Problem: Next: Cc1ccc(Br)cc1N1C(=O)Nc2c(C(=O)NC3CCN(C)CC3)sc3ncnc1c23
Solution: 12

Problem: Moving on to CN1CCC(NC(=O)c2sc3ncnc4c3c2NC(=O)N4c2ccc(Oc3ccc(F)cc3)cc2)CC1
Solution: 12

Problem: Next record, please: Cc1cccc(Cl)c1N1C(=O)Nc2c(C(=O)Nc3ccc(CN4CCOCC4)cc3)sc3ncnc1c23
Solution: 65

Problem: Now give it for COc1ccc(N2C(=O)Nc3c(C(=O)Nc4ccc(CN5CCCCC5)cc4)sc4ncnc2c34)cc1Cl too.
Solution: -13

Problem: Next entry: COc1ccc(NC(=O)c2sc3ncnc4c3c2NC(=O)N4c2ccc(Br)cc2F)cc1OC
Solution: -13

====

biological target: EGFR (Homo sapiens); construct: The intracellular portion of EGFR started at nucleotide 2189 (corresponding to amino acid 667) and ended at the termination codon; experiment: EGFR Kinase Assay; settings: GST-EGFR, ATP 5 μM
Sequence (P00533 669-1210 limits assumed): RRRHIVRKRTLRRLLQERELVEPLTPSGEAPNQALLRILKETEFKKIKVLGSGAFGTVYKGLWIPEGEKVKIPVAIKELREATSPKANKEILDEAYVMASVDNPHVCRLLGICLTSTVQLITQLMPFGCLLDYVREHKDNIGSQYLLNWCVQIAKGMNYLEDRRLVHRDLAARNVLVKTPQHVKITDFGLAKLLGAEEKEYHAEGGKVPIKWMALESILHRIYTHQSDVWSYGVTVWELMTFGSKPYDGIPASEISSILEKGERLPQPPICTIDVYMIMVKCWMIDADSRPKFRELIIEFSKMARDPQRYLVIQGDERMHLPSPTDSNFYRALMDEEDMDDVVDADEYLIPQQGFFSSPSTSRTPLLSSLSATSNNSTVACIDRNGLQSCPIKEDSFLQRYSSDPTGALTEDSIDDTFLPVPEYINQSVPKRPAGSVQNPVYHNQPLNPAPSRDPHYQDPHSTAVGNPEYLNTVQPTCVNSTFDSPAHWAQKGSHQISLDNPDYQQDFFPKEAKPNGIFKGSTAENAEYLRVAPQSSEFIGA
Entries annotated with measured IC50
Give your result in nM as a bare value.

{"MOLECULE": "O=C(Nc1ccc(NCCCN2CCOCC2)nc1)c1sc2ncnc3c2c1NC(=O)N3c1cccc(Br)c1 [Cpd 64]", "SCALE UNIT": "nM", "IC50": 159}
{"MOLECULE": "CC1COCC(C)N1Cc1ccc(NC(=O)c2sc3ncnc4c3c2NC(=O)N4c2ccc(Oc3ccccc3)cc2)cc1 (stereo not shown) [Cpd 253]", "SCALE UNIT": "nM", "IC50": 120}
{"MOLECULE": "O=C(Nc1ccc(CN2CCCCC2)cc1)c1sc2ncnc3c2c1NC(=O)N3c1ccc([S+]([O-])c2ccccc2)cc1 (stereo not shown) [Cpd 205]", "SCALE UNIT": "nM", "IC50": 689}

Problem: # input molecule: COc1cc(N2C(=O)Nc3c(C(=O)Nc4ccc(OCCN5CCOCC5)c(OC)c4)sc4ncnc2c34)c(Cl)cc1Cl [Cpd 34] ; wanted: its IC50
Solution: 5370

====

target: c-Src kinase (human) (Homo sapiens); construct: purchased Upstate Biotechnology, Lake Placid, N.Y; experiment: c-Src Kinase Assay; type: biochemical; conditions: test concentration of 2 μM; multiple values are separate assay results
Note to self: values exactly at 10% are condition met. So inhibition at 2 µM at or above 10% is condition met, below is condition not met.

{"STRUCTURE STRING": "CN1CCN(Cc2ccc(NC(=O)c3sc4ncnc5c4c3NC(=O)N5c3ccccc3Cl)cc2)CC1", "ANSWER LABEL": "condition met"}

Problem: Decide: inhibition at 2 µM of CCOC(=O)c1sc2ncnc3c2c1NC(=O)N3c1cc(Br)ccc1C >= 10%?
Solution: condition met

Problem: Quick one: CN1CCN(Cc2ccc(NC(=O)c3sc4ncnc5c4c3NC(=O)N5c3ccc(Oc4ccccc4)c(F)c3)cc2)CC1
Solution: condition not met

Problem: Cool, now O=C(Nc1ccc(CN2CCOCC2)cc1)c1sc2ncnc3c2c1NC(=O)N3c1ccc(Oc2cccc(F)c2)cc1
Solution: condition met

Problem: Try this molecule too: COc1ccc(NC(=O)c2sc3ncnc4c3c2NC(=O)N4c2ccc(Oc3ccccc3)cc2)cc1OC
Solution: condition not met

Problem: Likewise for O=C(Nc1ccc(CN2CCCCC2)cc1)c1sc2ncnc3c2c1NC(=O)N3c1cc(OCc2cccc(F)c2)c(Cl)cc1Cl ?
Solution: condition not met

Problem: Queued: COc1ccc(Cl)c(N2C(=O)Nc3c(C(=O)O)sc4ncnc2c34)c1
Solution: condition not met

Problem: Next molecule: COc1ccc(Cl)c(N2C(=O)Nc3c(C(=O)Nc4ccc(OCCN5CCCCC5)c(OC)c4)sc4ncnc2c34)c1
Solution: condition met

====

target: c-Src kinase (human) (Homo sapiens, UniProt P12931)
Sequence (P12931 whole entry): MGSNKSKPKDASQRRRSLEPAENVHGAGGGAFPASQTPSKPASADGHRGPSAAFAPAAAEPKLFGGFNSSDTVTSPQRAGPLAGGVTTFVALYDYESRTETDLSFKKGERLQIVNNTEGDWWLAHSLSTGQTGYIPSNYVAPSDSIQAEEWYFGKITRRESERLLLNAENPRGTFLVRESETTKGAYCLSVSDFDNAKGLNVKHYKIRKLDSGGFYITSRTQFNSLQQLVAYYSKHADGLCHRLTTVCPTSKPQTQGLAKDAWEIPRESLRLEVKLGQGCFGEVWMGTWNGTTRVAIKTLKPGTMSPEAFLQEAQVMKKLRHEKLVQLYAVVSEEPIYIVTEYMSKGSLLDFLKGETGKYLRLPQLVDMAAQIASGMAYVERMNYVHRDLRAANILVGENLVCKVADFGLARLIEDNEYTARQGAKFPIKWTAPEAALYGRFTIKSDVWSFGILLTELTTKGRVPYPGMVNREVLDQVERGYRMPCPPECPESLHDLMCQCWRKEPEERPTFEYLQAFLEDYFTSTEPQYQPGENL
pIC50: −log10 of the molar value.
PARAMETER: pIC50

Examples with answers:
{"COMPOUND": "O=C(Nc1ccc(CN2CCOCC2)cc1)c1sc2ncnc3c2c1NC(=O)N3c1c(Cl)ccc2c1OCO2 [Cpd 62]", "RESULT": 7.12}
{"COMPOUND": "CCOC(=O)c1sc2ncnc3c2c1NC(=O)N3c1ccc2c(cnn2Cc2cccc(F)c2)c1 [Cpd 78]", "RESULT": "< 3.70"}
{"COMPOUND": "O=C(Nc1ccc(CN2CCOCC2)cc1)c1sc2ncnc3c2c1NC(=O)N3c1ccc(N2CCOCC2)cc1 [Cpd 123]", "RESULT": 6.26}
{"COMPOUND": "O=C(Nc1ccc(CN2CCOCC2)cc1)c1sc2ncnc3c2c1NC(=O)N3c1cccc(Br)c1 [Cpd 36]", "RESULT": "< 4.70"}

Problem: For the compound shown here, COc1ccc(Cl)c(N2C(=O)Nc3c(C(=O)Nc4ccc(OC)c(OC)c4)sc4ncnc2c34)c1 [Cpd 49] , give the reported pIC50.
Solution: < 3.70

====

biological target: HER-2 (Homo sapiens, UniProt P04626); construct: His6 with thrombin site (N); assay: HER-2 Kinase Assay; settings: value in parentheses
Sequence (P04626 679-1255): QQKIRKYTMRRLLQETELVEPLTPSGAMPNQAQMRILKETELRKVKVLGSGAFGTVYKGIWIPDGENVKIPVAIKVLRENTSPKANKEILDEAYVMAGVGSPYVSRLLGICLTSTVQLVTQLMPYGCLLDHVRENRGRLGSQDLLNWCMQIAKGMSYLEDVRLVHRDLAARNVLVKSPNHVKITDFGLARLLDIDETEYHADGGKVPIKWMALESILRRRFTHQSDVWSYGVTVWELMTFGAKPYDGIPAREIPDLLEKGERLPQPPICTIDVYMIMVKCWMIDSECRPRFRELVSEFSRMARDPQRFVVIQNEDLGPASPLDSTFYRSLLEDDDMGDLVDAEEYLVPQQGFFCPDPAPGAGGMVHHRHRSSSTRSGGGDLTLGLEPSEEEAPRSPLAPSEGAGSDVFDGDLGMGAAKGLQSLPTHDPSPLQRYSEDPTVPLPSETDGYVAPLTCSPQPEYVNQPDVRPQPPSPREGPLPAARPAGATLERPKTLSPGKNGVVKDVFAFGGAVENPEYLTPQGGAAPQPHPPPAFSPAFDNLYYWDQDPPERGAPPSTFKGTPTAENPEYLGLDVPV
pIC50 by entry:
Note on units: pIC50 is unitless, being -log10 of a concentration expressed in mol/L.

Please review the entries below; each comes with its answer.
{"STRUCTURE STRING": "CN1CCN(Cc2ccc(NC(=O)c3sc4ncnc5c4c3NC(=O)N5c3ccc(Br)cc3F)cc2)CC1", "TESTED TARGET": "HER-2 (Homo sapiens, UniProt P04626)", "NUMBER": 5.99}
{"STRUCTURE STRING": "COc1cc(NC(=O)c2sc3ncnc4c3c2NC(=O)N4c2ccc(Oc3cccnc3)cc2)ccc1CN1CCOCC1", "TESTED TARGET": "HER-2 (Homo sapiens, UniProt P04626)", "NUMBER": 6.34}

Problem: Query the reported pIC50 for HER-2 (Homo sapiens, UniProt P04626); item: O=C(Nc1ccc(CN2CCCCC2)cc1)c1sc2ncnc3c2c1NC(=O)N3c1ccc(Br)cc1
Solution: 7.03

Problem: Then Cc1ccc(N2C(=O)Nc3c(C(=O)Nc4ccc(CN5CCCCC5)cc4)sc4ncnc2c34)cc1Br ?
Solution: 6.49

====

Quick reference for inhibition at 2 µM among some compounds
target: c-Src kinase (human) (Homo sapiens); construct: purchased Upstate Biotechnology, Lake Placid, N.Y; assay: c-Src Kinase Assay; format: biochemical; conditions: test concentration of 2 μM; multiple values are separate assay results

{"STRUCTURE STRING": "COC(=O)c1sc2ncnc3c2c1NC(=O)N3c1c(Cl)ccc2c1OCO2", "inhibition at 2 µM": "42%"}
{"STRUCTURE STRING": "COc1ccc(Cl)c(N2C(=O)Nc3c(C(=O)Nc4ccc(OC)c(OC)c4)sc4ncnc2c34)c1", "inhibition at 2 µM": "23%"}
{"STRUCTURE STRING": "O=C(O)c1sc2ncnc3c2c1NC(=O)N3c1ccc(OCc2ccccn2)c(Cl)c1", "inhibition at 2 µM": "7%"}
{"STRUCTURE STRING": "COc1ccc(NC(=O)c2sc3ncnc4c3c2NC(=O)N4c2ccc(Br)cc2F)cc1OC", "inhibition at 2 µM": "11%"}
{"STRUCTURE STRING": "COc1ccc(N2C(=O)Nc3c(C(=O)Nc4ccc(CCN5CCCCC5)cc4)sc4ncnc2c34)cc1Cl", "inhibition at 2 µM": "-5%"}

Problem: Dear colleague, I am looking for the recorded inhibition at 2 µM of the following compound: Cc1ccc(N2C(=O)Nc3c(C(=O)Nc4ccc(CN5CCOCC5)cc4)sc4ncnc2c34)cc1Br
Solution: 19%

Problem: O=C(Nc1ccc(CN2CCCC2)cc1)c1sc2ncnc3c2c1NC(=O)N3c1cc(OCc2cccc(F)c2)c(Cl)cc1Cl , same question.
Solution: -16%
